# experimental.system: Hypoxia-inducible factor 1-alpha (Homo sapiens) (UniProt Q16665)
# Sequence (Q16665 whole entry, looked up): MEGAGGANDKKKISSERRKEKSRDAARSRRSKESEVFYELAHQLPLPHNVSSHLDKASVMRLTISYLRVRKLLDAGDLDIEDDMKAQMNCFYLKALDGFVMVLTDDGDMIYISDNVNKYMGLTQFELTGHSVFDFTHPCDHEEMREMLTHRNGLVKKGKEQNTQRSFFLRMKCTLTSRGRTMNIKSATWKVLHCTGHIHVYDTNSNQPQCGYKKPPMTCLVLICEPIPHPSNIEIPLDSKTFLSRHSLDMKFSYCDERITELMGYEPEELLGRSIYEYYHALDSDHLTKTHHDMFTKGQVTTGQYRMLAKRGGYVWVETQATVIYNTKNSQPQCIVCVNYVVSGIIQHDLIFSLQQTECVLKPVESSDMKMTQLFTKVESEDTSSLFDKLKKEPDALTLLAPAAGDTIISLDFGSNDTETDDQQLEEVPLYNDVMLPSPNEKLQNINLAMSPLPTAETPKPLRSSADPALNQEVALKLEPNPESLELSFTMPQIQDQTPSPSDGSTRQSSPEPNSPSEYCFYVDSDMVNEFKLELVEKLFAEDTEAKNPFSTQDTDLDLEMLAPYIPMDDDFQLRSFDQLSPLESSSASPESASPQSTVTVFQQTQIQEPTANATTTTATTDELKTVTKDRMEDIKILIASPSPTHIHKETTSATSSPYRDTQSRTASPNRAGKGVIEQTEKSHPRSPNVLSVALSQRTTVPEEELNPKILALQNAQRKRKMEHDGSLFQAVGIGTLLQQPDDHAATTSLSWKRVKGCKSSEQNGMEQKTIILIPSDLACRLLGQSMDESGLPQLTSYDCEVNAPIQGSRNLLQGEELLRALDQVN
# assay: activators of HIF1alpha nuclear accumulation, confirmation, imaging, fluorescence, U2OS GFP-HIF1alpha (AID 434951)
# assay.setup: U2OS GFP-HIF1alpha nuclear intensity, high-content imaging
Activity calls are given as the source filed them.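 How the source made its calls: active means a fitted half-maximal concentration EC50 for the rise in nuclear signal no higher than ten times the top dose tested; inconclusive means flat fit with activity between 30% and 70%, or unusable fit; inactive means EC50 beyond ten times the top dose.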
Give one outcome, nothing more. List: true (1) for active, false (0) for inactive

Previously resolved entries follow.
COc1ccc(-c2nnc(-c3cc4c(ccc5ccccc54)oc3=O)o2)cc1	false (0)
CC(Oc1ccc2ccc(=O)oc2c1)C(=O)NCCN1CCOCC1 (stereo not given)	false (0)
CCn1c(N2CCC(Cc3ccccc3)CC2)nc2c1c(=O)[nH]c(=O)n2C	false (0)

Inquiry: Record request — test call for CC1(C)CC(NC(=O)CCC2CCCC2)CC(C)(C)N1
Reply text: false (0)

Inquiry: Record request — test call for CCN(CC)c1ccc(NC(=O)Cn2nnc(-c3cccc(OC)c3OC)n2)c(C)c1
Reply text: false (0)

Inquiry: Record request — test call for COc1ccc(C2(C)NC(=O)NC2=O)cc1OC (stereo not given)
Reply text: false (0)

Inquiry: Record request — test call for COc1cc(C2CC(=O)N3CN(Cc4ccccc4)CSC3=C2C#N)ccc1OCc1ccccc1 (stereo not given)
Reply text: false (0)

* * *

Please provide measured EC50 for the entries that follow.
# experimental.system: Hypoxia-inducible factor 1-alpha (Homo sapiens)
# assay: activators of HIF1alpha nuclear accumulation, confirmation, imaging, fluorescence, U2OS GFP-HIF1alpha (AID 434951)
# assay.setup: U2OS GFP-HIF1alpha nuclear intensity, high-content imaging
Activity calls are given as the source filed them.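 The calls were made as follows: active = a fitted half-maximal concentration EC50 for the rise in nuclear signal no higher than ten times the top dose tested; inconclusive = flat fit with activity between 30% and 70%, or unusable fit; inactive = EC50 beyond ten times the top dose.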

Here's what some known entries look like.
COc1ccc(N2CCN(C(=O)COc3ccc4c(C)c(C)c(=O)oc4c3C)CC2)cc1	> 35 µM (inactive)
Cc1cccc(OCC(=O)NCC(=O)N/N=C/c2cccnc2)c1	> 35 µM (inactive)
CC(C)c1cc(-c2cc(C(=O)NCc3ccccc3)on2)nc(NC2CCCC2)n1	> 35 µM (inactive)

I need EC50 for every entry listed below, if you could help.
1. FC(F)(F)c1cnc(N2CCN(C(=S)NCc3ccccc3)CC2)c(Cl)c1
2. O=C(NCCc1ccccc1)c1cc2sccc2n1Cc1ccccc1

Reply text:
> 35 µM (inactive)
> 35 µM (inactive)

I need EC50 for every entry listed below, if you could help.
1. COc1ccc(N2CCN(S(=O)(=O)c3cc(-c4cc(C)no4)ccc3C(C)C)CC2)cc1
2. COc1ccccc1N(CC(=O)NC1CCCCC1)S(C)(=O)=O
3. C=C(C)CNC(=O)c1ccc2nc(Cc3ccc(OC)cc3)oc2c1
4. CSc1sc(C(=O)N2CCCCC2)c(-c2cccs2)c1C#N
5. CSc1ccc(/C=N/Nc2ccc(Cl)c(C(=O)O)c2)cc1
6. Cc1cc(C)c2sc(NNC(=O)c3ccc(S(=O)(=O)N4CCc5ccccc5C4)cc3)nc2c1
7. CC/C(=N\N1CCCCCC1)c1c(O)n(-c2ccc(C)cc2)c(=O)[nH]c1=O
8. COc1ccc(F)cc1CSc1nnnn1-c1ccc(O)cc1

Reply text:
["> 35 µM (inactive)", "> 35 µM (inactive)", "> 35 µM (inactive)", "> 35 µM (inactive)", "> 35 µM (inactive)", "10.5 µM", "> 35 µM (inactive)", "> 35 µM (inactive)"]

I need EC50 for every entry listed below, if you could help.
1. CCOC(=O)c1sc(Nc2cccc(Cl)c2)nc1C
2. CCCCc1nnc(NC(=O)c2ccc3[nH]c(=O)c(=O)[nH]c3c2)s1
3. OCCNc1c2ccccc2nc2ccccc12
4. CC(C)=CCSc1nnc([C@@H](N)Cc2c[nH]c3ccccc23)o1

Reply text:
["> 35 µM (inactive)", "> 35 µM (inactive)", "32.4 µM", "> 35 µM (inactive)"]
